Target: PfCK (Plasmodium falciparum)
Construct: A truncated form of PfCK (Δ79-440) featuring an N-terminal 6× His-tag; 6xHis (N); host or cells: Escherichia coli BL21 (DE3) Star
Sequence (Q8IM71 entry or part of it): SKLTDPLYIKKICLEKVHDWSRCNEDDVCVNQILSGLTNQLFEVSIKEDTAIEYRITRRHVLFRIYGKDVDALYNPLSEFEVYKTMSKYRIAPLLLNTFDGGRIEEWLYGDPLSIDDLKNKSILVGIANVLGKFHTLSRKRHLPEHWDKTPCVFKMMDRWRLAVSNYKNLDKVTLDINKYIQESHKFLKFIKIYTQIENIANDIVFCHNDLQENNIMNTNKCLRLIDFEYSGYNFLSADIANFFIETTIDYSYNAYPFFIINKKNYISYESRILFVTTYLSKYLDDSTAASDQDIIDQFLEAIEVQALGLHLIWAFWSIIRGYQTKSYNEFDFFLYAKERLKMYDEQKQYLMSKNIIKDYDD
Experiment: Spectrophotometric coupled enzymatic assay for PfCK activity (substrate choline)
Assay type: biochemical
Conditions: read-out: PfCK Fractional Activity at 25 µM

smiles.string	remaining activity at 25 µM / %
[Br-].[Br-].c1cc2c(s1)c(N1CCCC1)cc[n+]2Cc1ccc(OCCOc2ccc(C[n+]3ccc(N4CCCC4)c4sccc43)cc2)cc1	81.8
[Br-].[Br-].c1cc2c(s1)c(N1CCCCCC1)nc[n+]2Cc1ccc(-c2ccc(C[n+]3cnc(N4CCCCCC4)c4sccc43)cn2)nc1	78
[Br-].[Br-].c1cc2c(s1)c(N1CCCC1)nc[n+]2Cc1ccc(-c2ccc(C[n+]3cnc(N4CCCC4)c4sccc43)cn2)nc1	50.3
[Br-].[Br-].c1cc2c(s1)c(N1CCCC1)nc[n+]2Cc1ccc(CCc2ccc(C[n+]3cnc(N4CCCC4)c4sccc43)cc2)cc1	79.7
